# procedure details: gradient 5% acetonitrile 3 min, to 50% in 2 min, to 85% in 15 min, held 3 min, 100 µL/min
# assay conditions: column: Zorbax Extend-C18 2.1 x 50 mm; eluents: water / acetonitrile, 0.1% formic acid
attribute measured: RP-LC retention time (s)

[[record]]
structure_smiles_string = "CCn1c(=O)n(CCc2ccccc2)c2cncnc21"
reported_measurement = 715

[[record]]
structure_smiles_string = "CCCn1c(CCc2ccccc2NS(=O)(=O)c2cnn(CC)c2)nc2ccccc21"
reported_measurement = 680

[[record]]
structure_smiles_string = "CN1c2ccc(Cl)cc2C(=O)NC12CCN(C(=O)NCc1ccc(F)cc1)CC2"
reported_measurement = 785


====

# procedure details: gradient 5% acetonitrile 3 min, to 50% in 2 min, to 85% in 15 min, held 3 min, 100 µL/min
# assay conditions: column: Zorbax Extend-C18 2.1 x 50 mm; eluents: water / acetonitrile, 0.1% formic acid
attribute measured: RP-LC retention time (s)

[[record]]
compound = "CCC(C(=O)NCCc1c(C)noc1C)n1c2ccccc2c2cnn(C)c(=O)c21 (centres undefined)"
endpoint_unit = "s"
reported_measurement = 739

[[record]]
compound = "COc1cc(-n2c(=O)c3ccccc3n(Cc3ccccc3F)c2=O)cc(OC)c1OC"
endpoint_unit = "s"
reported_measurement = 850

[[record]]
compound = "Cc1ncsc1CN1CCCC(c2nc(-c3cnccn3)no2)CCNC(=O)CC1 (centres undefined)"
endpoint_unit = "s"
reported_measurement = 577

[[record]]
compound = "COCCN1C(=O)CCc2cc(NS(=O)(=O)c3ccccc3F)ccc21"
endpoint_unit = "s"
reported_measurement = 726

[[record]]
compound = "CC(C)c1nc2ccc(C(=O)NCCc3c[nH]c4ccc(Cl)cc34)cc2o1"
endpoint_unit = "s"
reported_measurement = 941

[[record]]
compound = "Cn1c(C2CCN(S(=O)(=O)c3ccc(Cl)cc3)C2)nc2cccnc21 (centres undefined)"
endpoint_unit = "s"
reported_measurement = 760

[[record]]
compound = "Cc1cc(N2CCN(C(=O)c3nccc4ccccc34)CC2)nc2nncn12"
endpoint_unit = "s"
reported_measurement = 597

[[record]]
compound = "Cc1ccc(S(=O)(=O)N2C[C@H](c3nc(-c4cccnc4)no3)[C@@H](C)C2)cc1"
endpoint_unit = "s"
reported_measurement = 939

[[record]]
compound = "CC(=O)Nc1c(C)nn(-c2ccccc2)c1N1CCC(C(=O)N2CCN(c3ccccn3)CC2)CC1"
endpoint_unit = "s"
reported_measurement = 569

[[record]]
compound = "CCOc1ccc(S(=O)(=O)N2CCCC2C(=O)Nc2nccs2)cc1 (centres undefined)"
endpoint_unit = "s"
reported_measurement = 818

[[record]]
compound = "Cc1c(Cl)cccc1NC(=O)Cn1c(=O)n(-c2ccc(F)cc2)c(=O)c2c1cc(C)n2C"
endpoint_unit = "s"
reported_measurement = 880

[[record]]
compound = "CCN(CC)C(=O)c1cc2c(s1)CCC(C(=O)N1CCN(c3ccccn3)CC1)C2 (centres undefined)"
endpoint_unit = "s"
reported_measurement = 629

[[record]]
compound = "CCCn1cc(-c2ccncc2)cc1C(=O)Nc1ccc(OC)c(OC)c1"
endpoint_unit = "s"
reported_measurement = 654

[[record]]
compound = "COCCCNC(=O)Cn1nc(C)c2nn(-c3ccc(F)cc3)c(-n3cccc3)c2c1=O"
endpoint_unit = "s"
reported_measurement = 795

[[record]]
compound = "COc1ccc2[nH]cc(CCNC(=O)C(C)C3CCN(S(=O)(=O)c4c(C)noc4C)CC3)c2c1 (centres undefined)"
endpoint_unit = "s"
reported_measurement = 831

[[record]]
compound = "O=C(CN1C(=O)c2cccnc2Sc2ccccc21)NCCc1c[nH]c2ccc(Cl)cc12"
endpoint_unit = "s"
reported_measurement = 817

[[record]]
compound = "CNC(=O)c1ccccc1Nc1nc(Nc2ccc(N3CCOCC3)cc2OC)ncc1Cl"
endpoint_unit = "s"
reported_measurement = 722

[[record]]
compound = "O=C(Nc1ccccc1)N1C[C@@H]2C(=O)N(CCc3ccccc3)C(=O)[C@@H]2C1"
endpoint_unit = "s"
reported_measurement = 789

[[record]]
compound = "O=C(Nc1ccc2c(c1)OCCO2)N1CCC2(CCCCO2)CC1"
endpoint_unit = "s"
reported_measurement = 712


====

# procedure details: gradient 5% acetonitrile 3 min, to 50% in 2 min, to 85% in 15 min, held 3 min, 100 µL/min
# assay conditions: column: Zorbax Extend-C18 2.1 x 50 mm; eluents: water / acetonitrile, 0.1% formic acid
attribute measured: RP-LC retention time (s)

[[record]]
molecule = "CCc1nc(-c2csc(S(=O)(=O)N3CCCC(C(=O)Nc4ccc(Cl)cc4)C3)c2)no1 (configuration not stated)"
attribute_measured = "RP-LC retention time"
endpoint_unit = "s"
reported_measurement = 1100

[[record]]
molecule = "CCC(=O)N1CCc2c(c(C(=O)N3CCC(C(=O)NCc4ccc(OC)cc4)CC3)nn2C)C1"
attribute_measured = "RP-LC retention time"
endpoint_unit = "s"
reported_measurement = 640

[[record]]
molecule = "COCCN1C(=O)c2cccn2CC1CNC(=O)Cc1c(C)noc1C (configuration not stated)"
attribute_measured = "RP-LC retention time"
endpoint_unit = "s"
reported_measurement = 610

[[record]]
molecule = "CCCn1nc(CNC(=O)CNC(C)=O)c2ccccc21"
attribute_measured = "RP-LC retention time"
endpoint_unit = "s"
reported_measurement = 632

[[record]]
molecule = "COc1cc2c(cc1OC)CN(CCc1ccc(NC(=O)c3cc(OC)c(OC)cc3NC(=O)c3cnc4ccccc4c3)cc1)CC2"
attribute_measured = "RP-LC retention time"
endpoint_unit = "s"
reported_measurement = 777

[[record]]
molecule = "O=C(Nc1ccc2nc(N3CCN(C4CCCCC4)CC3)cc(C(=O)O)c2c1)c1ccc(F)cc1"
attribute_measured = "RP-LC retention time"
endpoint_unit = "s"
reported_measurement = 625

[[record]]
molecule = "CNC(=O)c1cc2c(=O)n(CC(C)C)c3ccccc3n2n1"
attribute_measured = "RP-LC retention time"
endpoint_unit = "s"
reported_measurement = 793

[[record]]
molecule = "CC(C)CNC(=O)CCc1nc2ccccc2n(CC(=O)NCc2ccccc2)c1=O"
attribute_measured = "RP-LC retention time"
endpoint_unit = "s"
reported_measurement = 769

[[record]]
molecule = "Cc1cnn(CC(=O)N2CCCCCCNC(=O)[C@@H]3CCCC[C@@H]32)c1"
attribute_measured = "RP-LC retention time"
endpoint_unit = "s"
reported_measurement = 716

[[record]]
molecule = "Cc1ccc(Cn2nnc(C(=O)N3CCSCC3)c2-n2cccc2)cc1"
attribute_measured = "RP-LC retention time"
endpoint_unit = "s"
reported_measurement = 956

[[record]]
molecule = "Cc1ccc(C)c(CN2CCC(CNC(=O)C3CCCN(c4cc(=O)n(C)c(=O)n4C)C3)CC2)c1 (configuration not stated)"
attribute_measured = "RP-LC retention time"
endpoint_unit = "s"
reported_measurement = 599

[[record]]
molecule = "O=C(Nc1cnc(N2CCOCC2)nc1)c1cc(F)cc(F)c1"
attribute_measured = "RP-LC retention time"
endpoint_unit = "s"
reported_measurement = 789

[[record]]
molecule = "O=C(Nc1nc2c(s1)CN(C(=O)c1cc(C3CC3)on1)CC2)c1ccco1"
attribute_measured = "RP-LC retention time"
endpoint_unit = "s"
reported_measurement = 710

[[record]]
molecule = "O=C(Nc1nccs1)C1CC(=O)N(CCc2c[nH]c3ccc(Cl)cc23)C1 (configuration not stated)"
attribute_measured = "RP-LC retention time"
endpoint_unit = "s"
reported_measurement = 745

[[record]]
molecule = "CCc1ccc(N2CC(c3noc(-c4ccccn4)n3)CC2=O)cc1 (configuration not stated)"
attribute_measured = "RP-LC retention time"
endpoint_unit = "s"
reported_measurement = 829

[[record]]
molecule = "CCCCCCCC1(C)NC(=O)NC1=O (configuration not stated)"
attribute_measured = "RP-LC retention time"
endpoint_unit = "s"
reported_measurement = 817

[[record]]
molecule = "COC(=O)c1cccc(NC(=O)N2C[C@H]3C[C@@H](C2)c2cccc(=O)n2C3)c1"
attribute_measured = "RP-LC retention time"
endpoint_unit = "s"
reported_measurement = 636


====

# procedure details: gradient 5% acetonitrile 3 min, to 50% in 2 min, to 85% in 15 min, held 3 min, 100 µL/min
# assay conditions: column: Zorbax Extend-C18 2.1 x 50 mm; eluents: water / acetonitrile, 0.1% formic acid
attribute measured: RP-LC retention time (s)

[[record]]
molecule = "COc1cccc(-c2noc(C3CCCN3C(=O)Nc3ccccc3)n2)c1 (stereo not given)"
endpoint_unit = "s"
reported_measurement = 961

[[record]]
molecule = "O=C(Nc1ccc2c(c1)OCO2)Nc1ccc2nc3n(c(=O)c2c1)CCCC3"
endpoint_unit = "s"
reported_measurement = 651

[[record]]
molecule = "Cc1ccc(NC(=O)N(C)CC2CCOC2)cc1 (stereo not given)"
endpoint_unit = "s"
reported_measurement = 667


[1] CN(C)c1ccc(Nc2nc(-c3ccc(Br)cc3)cs2)cc1
[2] Cc1ccc2c(c1)OCC(=O)N2Cc1nc(-c2ccc(Cl)c(F)c2)no1
## Input Please indicate which item has the smaller measured RP-LC retention time: 1 versus 2 Pick one and reply with its label.
## Output 1
